Experiment: qHTS assay for identifying genotoxic compounds that show differential cytotoxicity against isogenic chicken DT40 cell lines with known DNA damage response pathways - wild type cell line (AID 743012); also: nearly all actives have a fitted effect of over 60% in size
Details: DT40 wild type chicken cells viability, CellTiter-Glo, 40 h; series mostly up to 68.4 µM
Results filed as inconclusive are left out. Calls of active or inactive are those of the source. Calls follow the shape of the dose curve; as a rule, active = well fitted cell-killing curve with a large enough effect in the repeat runs; inconclusive = weak or mixed curves, or effect the other way; inactive = no such curve, though single readings can be large or run the other way.
Possible outcomes: active, inactive

{"compound": "C=CC(=O)OC(C)(C)C", "class": "inactive"}
{"compound": "O=[Se]=O", "class": "active"}
{"compound": "COC(=O)c1cncn1C(C)c1ccccc1 (configuration not stated)", "class": "inactive"}
{"compound": "CCCCCCCCCCOC(=O)c1ccccc1C(=O)OCCCCCCCCCC", "class": "inactive"}
{"compound": "CCOC(=O)[C@]1(c2ccccc2)Oc2ccccc2[C@@H]1N", "class": "active"}
{"compound": "O=C(NC(=O)c1c(F)cccc1F)Nc1cc(Cl)c(Oc2ncc(C(F)(F)F)cc2Cl)c(Cl)c1", "class": "active"}
{"compound": "Cc1ccc(N)cc1C", "class": "inactive"}
